Overview of recorded MBC for various molecules
- System: Salmonella typhimurium ATCC 14028
- test.method.notes: MIC and MBC measurement
- Format: cell-based
- condition.details: Salmonella enterica

>  <input.smiles>
C[C@H](CCCN(C)Cc1ccccc1)[C@H]1CC[C@H]2[C@@H]3[C@H](OCCCNC(=N)N)C[C@@H]4C[C@H](OCCCNC(=N)N)CC[C@]4(C)[C@H]3C[C@H](OCCCNC(=N)N)[C@]12C

>  <experimental.target>
Salmonella typhimurium ATCC 14028

>  <MBC>
3.8 µg/mL

$$$$
>  <input.smiles>
CCCOCCC[C@@H](C)[C@H]1CC[C@H]2[C@@H]3[C@H](OCCCN)C[C@@H]4C[C@H](OCCCN)CC[C@]4(C)[C@H]3C[C@H](OCCCN)[C@]12C

>  <experimental.target>
Salmonella typhimurium ATCC 14028

>  <MBC>
90 µg/mL

$$$$
>  <input.smiles>
C[C@H](CCCO)[C@H]1CC[C@H]2[C@@H]3[C@H](OCCCN)C[C@@H]4C[C@H](OCCCN)CC[C@]4(C)[C@H]3C[C@H](OCCCN)[C@]12C

>  <experimental.target>
Salmonella typhimurium ATCC 14028

>  <MBC>
> 17 µg/mL

$$$$
>  <input.smiles>
C[C@]12CC[C@@H](OCCCN)C[C@H]1C[C@@H](OCCCN)[C@@H]1[C@@H]2C[C@H](OCCCN)[C@]2(C)[C@@H](O)CC[C@@H]12

>  <experimental.target>
Salmonella typhimurium ATCC 14028

>  <MBC>
> 100 µg/mL

$$$$
>  <input.smiles>
C[C@H](CCCN(C)Cc1ccccc1)[C@H]1CC[C@H]2[C@@H]3[C@H](OCCCN)C[C@@H]4C[C@H](OCCCN)CC[C@]4(C)[C@H]3C[C@H](OCCCN)[C@]12C

>  <experimental.target>
Salmonella typhimurium ATCC 14028

>  <MBC>
16 µg/mL

$$$$
>  <input.smiles>
C[C@H](CCCN(C)Cc1ccccc1)[C@H]1CC[C@H]2[C@@H]3[C@H](OCCN)C[C@@H]4C[C@H](OCCN)CC[C@]4(C)[C@H]3C[C@H](OCCN)[C@]12C

>  <experimental.target>
Salmonella typhimurium ATCC 14028

>  <MBC>
> 25 µg/mL

$$$$

====

- Tested on: Klebsiella pneumonia ATCC 13883
- test.method.notes: MIC and MBC measurement
- Format: cell-based
- condition.details: Klebsiella pneumoniae, ATCC13883
- Experimental: General: Microorganisms. Reference strains were purchased from the American Type Culture Collection (Rockville, MD) or Bactrol disks from Difeo Laboratories (Detroit, MI). […] Aliquots of 1 mL of the suspension were added to test tubes containing 1 mL TSB and incrementally varied concentrations of cholic acid derivatives and/or erythromycin or novobiocin. […] Colonies that grew on the subculture after overnight incubation were counted and the number of CFU/mL in the samples were calculated. […]
Each entry below lists one item and its recorded log10(MBC) value.
outcome.measure: log10(MBC) (log10 of the value in µg/mL)

>  <input.smiles>
C[C@]12CC[C@@H](OCCCN)C[C@H]1C[C@@H](OCCCN)[C@@H]1[C@@H]2C[C@H](OCCCN)[C@]2(C)[C@@H](O)CC[C@@H]12

>  <experimental.target>
Klebsiella pneumonia ATCC 13883

>  <log10(MBC)>
2.00

$$$$
>  <input.smiles>
C[C@H](CCCN(C)Cc1ccccc1)[C@H]1CC[C@H]2[C@@H]3[C@H](OCCCN)C[C@@H]4C[C@H](OCCCN)CC[C@]4(C)[C@H]3C[C@H](OCCCN)[C@]12C

>  <experimental.target>
Klebsiella pneumonia ATCC 13883

>  <log10(MBC)>
1.23

$$$$
>  <input.smiles>
C[C@H](CCCN(C)Cc1ccccc1)[C@H]1CC[C@H]2[C@@H]3[C@H](OCCCNC(=N)N)C[C@@H]4C[C@H](OCCCNC(=N)N)CC[C@]4(C)[C@H]3C[C@H](OCCCNC(=N)N)[C@]12C

>  <experimental.target>
Klebsiella pneumonia ATCC 13883

>  <log10(MBC)>
0.83

$$$$
>  <input.smiles>
CCCOCCC[C@@H](C)[C@H]1CC[C@H]2[C@@H]3[C@H](OCCCN)C[C@@H]4C[C@H](OCCCN)CC[C@]4(C)[C@H]3C[C@H](OCCCN)[C@]12C

>  <experimental.target>
Klebsiella pneumonia ATCC 13883

>  <log10(MBC)>
1.43

$$$$
>  <input.smiles>
C[C@H](CCCO)[C@H]1CC[C@H]2[C@@H]3[C@H](OCCCN)C[C@@H]4C[C@H](OCCCN)CC[C@]4(C)[C@H]3C[C@H](OCCCN)[C@]12C

>  <experimental.target>
Klebsiella pneumonia ATCC 13883

>  <log10(MBC)>
1.70

$$$$

All values here come from patent EP1311531B1.
